- Tested on: wild-type HSV-1 strain F
- assay.overview: Anti-HSV-1 plaque reduction assay (PRA) on supernatants of infected U2OS cells
- Format: cell-based
- test.conditions: HSV-1 strain F, MOI 1, supernatants at 24 h.p.i., plaque reduction assay, read-out: IC50 (concentration able to perform 50% inhibition of HSV-1 production)
measurement.label: pIC50
To interpret pIC50, take it as minus log10 of a concentration measured in moles per litre.

## Task Looking for the measured pIC50 of Cc1c2ccncc2c(C)c2c1[nH]c1ccc(OCCN(C)C)cc12 [GQC-05, reference compound] , can you help?
## Result 6.51

* * *

CC50 for assorted molecules
- assay.overview: Cytotoxicity by MTT assay
- Type: cell-based, Human
- test.conditions: human, U2OS cells (osteosarcoma cell line), read-out: CC50 (concentration able to kill 50% of the cells)
Answer shape: numeric part, then the unit.

molecule | obs.value
c1ccc2c3c4c(nc2c1)c1ccccc1n4CCCN3CCCN1CCCCC1 [GSA-1202] | 4.32 µM

## Task Query: CC50; subject: CN1CCN(CCCN2CCCn3c4ccccc4c4nc5ccccc5c2c43)CC1 [GSA-0903]
## Result 6.23 µM

## Task What would you report for CN(C)CCCN1CCCn2c3ccccc3c3nc4ccccc4c1c32 [GSA-1504] ?
## Result 4.6 µM

* * *

- assay.overview: Cytotoxicity by MTT assay
- Format: cell-based, Human
- test.conditions: human, U2OS cells (osteosarcoma cell line), read-out: CC50 (concentration able to kill 50% of the cells)
Binarize CC50 at 20 µM; below is criterion met, at or above is criterion not met.

molecule | category.label
OC1CCN(CCN2CCCn3c4ccccc4c4nc5ccccc5c2c43)CC1 | criterion met
c1ccc2c3c4c(nc2c1)c1ccccc1n4CCCN3CCCN1CCOCC1 | criterion not met
CN(C)CCN1CCCn2c3ccccc3c3nc4ccccc4c1c32 | criterion met
OC1CCC(CCN2CCCn3c4ccccc4c4nc5ccccc5c2c43)CC1 (centres unmarked) | criterion met

Now consider a different molecule.
## Task Problem: For the molecule Cl.c1ccc2c3c4c(nc2c1)c1ccccc1n4CCCN3CCCN1CCCCCC1 , is CC50 under 20 µM?
## Result criterion met
